- protocol.summary: NCI Yeast Anticancer Drug Screen. Data for the bub3 strain (AID 167)
- condition.description: S. cerevisiae bub3 mutant strain, active compounds read high; at 50.0 µM unless noted
This is part of a sample that, as a whole, favours compounds with a hit. Of some 79,000 tested, about 15% had one in any assay.
assay.metric: growth inhibition (%)
Kindly provide the numeric value in % only, without the unit symbol.

Query :: What value of measured growth inhibition is listed for N.N.N.N.O=C(O)C1OCCOCCOC(C(=O)O)C(C(=O)O)OCCOCCOC1C(=O)O.[Pt+2].[Pt+2] (stereo not drawn) ?
Result :: -13.5

Query :: What value of measured growth inhibition is listed for O=C(O)CS(=O)c1ccc2c3c(cccc13)C(=O)c1ccccc1-2 (stereo not drawn) ?
Result :: -30.8

Query :: What value of measured growth inhibition is listed for CC1OCC(O)C(C(O)C(=O)CN(Cc2ccccc2)Cc2ccccc2)O1 (stereo not drawn) ?
Result :: 5.75

* * *

- protocol.summary: NCI Yeast Anticancer Drug Screen. Data for the mlh1 rad18 strain (AID 175)
- condition.description: S. cerevisiae mlh1 rad18 strain growth inhibition, active compounds read high; at 50.0 µM unless noted
About 79,000 compounds went through this panel and 15% of them were active in at least one assay; those are over-represented in the sample as a whole.
Reported values of growth inhibition for individual entries
Kindly provide the numeric value in % only, without the unit symbol.

Study these solved cases before continuing.
CCN(c1ccccc1)S(=O)(=O)C(C)S(=O)(=O)N(CC)c1ccccc1 = -6.85
Cc1cccc2c1/C(=C1/c3ccccc3C(=O)c3cccc(C)c31)c1ccccc1C2=O = -6.15
Fc1cccc(C(Nc2nncs2)Nc2nncs2)c1F = 28.2
CC(C)=Nn1cnc2c1NC(C)(C)N=C2C(N)=O = -15.6
CCCCCCCCCCCCC = -20.9

Query :: What value of measured growth inhibition is listed for Cc1c2c(c(C)c3c1C(=O)c1cc4c(cc1C3=O)OCO4)OCO2 ?
Result :: -15.4

Query :: What value of measured growth inhibition is listed for C/C(=N\Nc1nc2ccccc2s1)c1ccc2c(c1)Sc1ccccc1O2 ?
Result :: 15.9

Query :: What value of measured growth inhibition is listed for Cc1ccccc1C=NC12CC3CC(CC(C3)C1)C2 ?
Result :: -25.1

Query :: What value of measured growth inhibition is listed for COc1cc(CCCC(C(=O)O)C(=O)O)cc(OC)c1OC ?
Result :: 11.7

Query :: What value of measured growth inhibition is listed for Cc1ccc(C)n1-n1c(Cc2ccccc2)n[nH]c1=O ?
Result :: -12.7

* * *

- protocol.summary: NCI Yeast Anticancer Drug Screen. Data for the sgs1 mgt1 strain (AID 161);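 also: 0% = growth of cultures given vehicle only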
- condition.description: S. cerevisiae sgs1 mgt1 strain, active compounds read high; at 50.0 µM unless noted
About 79,000 compounds went through this panel and 15% of them were active in at least one assay; those are over-represented in the sample as a whole.
Use 30% as the dividing line for growth inhibition, with the line itself on the TRUE side and lower values as FALSE.

CC(C)(C)C1CCC2(CC1)CCN(CCCN1CCOCC1)CC2 = TRUE
CCOP(=O)(OCC)/C(=C/n1c(=S)[nH]c2ccccc21)C(=O)OC = FALSE
C=C1C(=O)OCC1C(=O)OCC (stereo unspecified) = FALSE
O=C1CSC(c2ccc(O)cc2)N1c1nncs1 (stereo unspecified) = FALSE
CCOC(=O)C(=O)Nc1c(C)cccc1C(C)(C)C = FALSE

Below: the item to evaluate.
Query :: Threshold query (growth inhibition >= 30%) on O=C1CSC(c2ccccc2Cl)N1N1C(=O)CSC1c1ccccc1Cl (stereo unspecified)
Result :: FALSE

* * *

- protocol.summary: NCI Yeast Anticancer Drug Screen. Data for the bub3 strain (AID 167)
- condition.description: S. cerevisiae bub3 mutant strain, active compounds read high; at 50.0 µM unless noted
- Description: Growth inhibition of yeast strains with defined genetic alterations is measured as a screen for potential anti-cancer activity. Selected strains with alterations in DNA damage repair or cell cycle control were exposed to compounds and growth inhibition was measured relative to vehicle treated controls. The strain used in this assay is bub3
The panel holds about 79,000 compounds, 15% with a hit somewhere; the sample as a whole holds those more often.
Reported values of growth inhibition for individual entries
Kindly provide the numeric value in % only, without the unit symbol.

Study these solved cases before continuing.
CN(C)N1C(=O)S/C(=C\c2ccc([N+](=O)[O-])cc2)C1=O = -4.1
N#CC1C(c2ccc(Cl)cc2)C(C(N)=O)C(=O)NC1(O)c1ccccc1 (centres undefined) = 4.15
O=c1[nH]c2nc3ccccc3c(=O)n2nc1Cc1ccccc1 = -13.3

Query :: What value of measured growth inhibition is listed for O=C1C=CC(=O)C(CNc2ccc(C(=O)OCc3ccccc3)cc2)=C1 ?
Result :: -42.9

Query :: What value of measured growth inhibition is listed for C=C1CCCC(C)(C)[C@@H]1CC/C(C)=C/Cn1c2cccc(=O)c-2nc2ccccc21 ?
Result :: -17.4

Query :: What value of measured growth inhibition is listed for CC1C(C)(C)C23CC12C1(OCCO1)C3Br (centres undefined) ?
Result :: 10.8

* * *

- protocol.summary: NCI Yeast Anticancer Drug Screen. Data for the bub3 strain (AID 167)
- condition.description: S. cerevisiae bub3 mutant strain; at 50.0 µM unless noted
Compounds without any hit were thinned out: in the full panel of roughly 79,000, 15% have a hit. The source made the active and inactive calls. Cut-off read from the data, not from the text of the source: active = growth inhibition above about 70%; inactive = the rest.
Reply using exactly one outcome from class 1 for active, class 0 for inactive

CCOc1cc2c(cc1C(C)c1ccc(OC)c(C)c1)OCO2 (stereo unspecified) = class 0
Cc1nnc(N/N=C(/C(=O)C(C#N)c2ccc(Cl)cc2)C(C#N)c2ccc(Cl)cc2)n1N (stereo unspecified) = class 0

Query :: Any idea what this test logged for Cn1c2c(c(=O)c3cc(O)ccc31)CC(O)C(C)(C)O2 (stereo unspecified) ?
Result :: class 0

Query :: Any idea what this test logged for N/N=C1\C(=O)N(C2CCCCCC2)C(=O)C1C(=O)NC1CCCCCC1 (stereo unspecified) ?
Result :: class 0

Query :: Any idea what this test logged for C=C1C(=O)OC2/C=C(\COC(C)=O)CCC(OC(C)=O)C3=CC(OC3=O)C12 (stereo unspecified) ?
Result :: class 0

Query :: Any idea what this test logged for Cc1ccc2cc(-c3ccccc3)[nH]c2c1 ?
Result :: class 0

Query :: Any idea what this test logged for CCCCOP(=O)(Nc1ccc([N+](=O)[O-])cc1)OCCCC ?
Result :: class 1

Query :: Any idea what this test logged for COC(=O)[C@@H]1O[C@H]1c1ccccn1 ?
Result :: class 0

Query :: Any idea what this test logged for O=C(NCCO)c1c(O)c2ccccc2[nH]c1=O ?
Result :: class 0

Query :: Any idea what this test logged for CCCC(=O)CC(=O)C(F)(F)F.CCCC(=O)CC(=O)C(F)(F)F.CCCC(=O)CC(=O)C(F)(F)F.[Er] ?
Result :: class 0

Query :: Any idea what this test logged for O=C(OCc1ccccc1)ON1C(=O)C2C3C=CC(C3)C2C1=O (stereo unspecified) ?
Result :: class 0

Query :: Any idea what this test logged for O=C1NCC(CCl)O1 (stereo unspecified) ?
Result :: class 0

Query :: Any idea what this test logged for OCC(O)COc1ccc(F)cc1 (stereo unspecified) ?
Result :: class 0

Query :: Any idea what this test logged for NC1=CN(CCCO)C2=N/C(=C\c3ccccc3)C(=O)N12 ?
Result :: class 0

* * *

- protocol.summary: NCI Yeast Anticancer Drug Screen. Data for the mlh1 rad18 strain (AID 175)
- condition.description: S. cerevisiae mlh1 rad18 strain growth inhibition, active compounds read high; at 50.0 µM unless noted
Compounds without any hit were thinned out: in the full panel of roughly 79,000, 15% have a hit.
Reported values of growth inhibition for individual entries
Kindly provide the numeric value in % only, without the unit symbol.

Query :: What value of measured growth inhibition is listed for CCOC(=O)C1=C(O)c2ccccc2C(=O)C1=O ?
Result :: 8.95

Query :: What value of measured growth inhibition is listed for CC(=O)Oc1ccc2c(c1)CCC2 ?
Result :: 0.1

Query :: What value of measured growth inhibition is listed for CCC(Cl)COP(=O)(OCC(Cl)CC)O/C(C)=C(\C)OP(=O)(OCC(Cl)CC)OCC(Cl)CC (stereo unspecified) ?
Result :: -1.7

Query :: What value of measured growth inhibition is listed for Cc1c(Cl)cc(Cl)c2c1C(=O)CC(C)O2 (stereo unspecified) ?
Result :: 18.8

Query :: What value of measured growth inhibition is listed for CC(=O)Nc1ccc(C2NCc3cnc(C)nc3N2)cc1 (stereo unspecified) ?
Result :: 0.95

Query :: What value of measured growth inhibition is listed for O=C(CNC(=O)C(Cc1ccccc1)N1C(=O)c2ccccc2C1=O)Nc1ccccc1 (stereo unspecified) ?
Result :: 6.55

* * *

Reported values of growth inhibition for individual entries
- protocol.summary: NCI Yeast Anticancer Drug Screen. Data for the sgs1 mgt1 strain (AID 161);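 also: 0% = growth of cultures given vehicle only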
- condition.description: S. cerevisiae sgs1 mgt1 strain, active compounds read high; at 50.0 µM unless noted
About 79,000 compounds went through this panel and 15% of them were active in at least one assay; those are over-represented in the sample as a whole.
Kindly provide the numeric value in % only, without the unit symbol.

Cc1nc2ccncc2[nH]1 = -17.4
COc1ccc2occ(CCC(=O)O)c2c1 = -2.25
COc1ccccc1C(O)C(C)C (stereo unspecified) = 3.9
Cc1cc(C)nc(NS(=O)(=O)c2ccc(NC(=O)c3cccc4c(Nc5ccc(S(=O)(=O)Nc6nc(C)cc(C)n6)cc5)c5ccc(Cl)cc5nc34)cc2)n1 = 24.3
O=C(O)C1C2CC=CCC21 (stereo unspecified) = 11.8

Query :: What value of measured growth inhibition is listed for O=C(COc1cc(Cl)c(Cl)cc1Cl)Nc1ccc(Cl)cc1 ?
Result :: 18

Query :: What value of measured growth inhibition is listed for C/C(CC(=O)Nc1cc(Cl)c(Cl)cc1Cl)=N\NS(=O)(=O)c1ccc(C)cc1 ?
Result :: 3.35

Query :: What value of measured growth inhibition is listed for CC1(C)OC(CI)C(COS(C)(=O)=O)O1 (stereo unspecified) ?
Result :: 3.7

Query :: What value of measured growth inhibition is listed for CCCCCCCC[n+]1ccc(C#N)cc1 ?
Result :: 14.3

Query :: What value of measured growth inhibition is listed for Cc1cccc(-c2cc3ccccc3c(Cl)n2)n1 ?
Result :: 10.8

Query :: What value of measured growth inhibition is listed for N#CCN(CC#N)C1CC=CCC1N(CC#N)CC#N (stereo unspecified) ?
Result :: -30.2
